- System: ATP;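 note: ATP exposure 15 min at 22 °C before imaging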
- experiment-notes: switch fluorescence ratio, 500 uM ATP over buffer (Cy3 cluster intensity, sum of 5 cycles each) (fold (ratio)); higher = stronger signal-on switching upon ATP binding; sequences stand for … in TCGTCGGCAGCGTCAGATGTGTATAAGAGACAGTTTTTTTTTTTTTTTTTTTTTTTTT…TC
- test-settings: aptamer strand: ATP DNA aptamer (quencher-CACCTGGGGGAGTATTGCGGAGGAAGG + anchor), 100 nM annealed; ATP concentration: 500 uM
Kindly return condition met if reported switch fluorescence ratio is no lower than 1; return condition not met if it is lower.

| sequence-input | class-name |
| --- | --- |
| AGGTTTAAAC | condition met |
| TCAGAAGGTG | condition met |
| GAGCACGTAT | condition met |
| GGGGACACGG | condition met |
| TAAGGTTGTA | condition not met |
| TGTGGGAGCT | condition met |
| TATGCAGTTT | condition not met |
| TAGAAACACT | condition met |
| TTTAAACCCT | condition met |

* * *

- Test system: ATP;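 note: ATP exposure 15 min at 22 °C before imaging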
- experiment-notes: switch fluorescence ratio, 500 uM ATP over buffer (Cy3 cluster intensity, sum of 5 cycles each) (fold (ratio)); higher = stronger signal-on switching upon ATP binding; sequences stand for … in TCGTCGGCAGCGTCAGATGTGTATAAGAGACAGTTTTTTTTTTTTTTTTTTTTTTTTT…TC
- test-settings: aptamer strand: ATP DNA aptamer (quencher-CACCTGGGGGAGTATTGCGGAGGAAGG + anchor), 100 nM annealed; ATP concentration: 500 uM
Consider the following sequences and their measured switch fluorescence ratio readings.
reported-property: switch fluorescence ratio

| sequence-input | observed-measurement |
| --- | --- |
| ATTTTGTCTT | 1.02 |
| TTTGTGGGCC | 1.03 |
| TGGGGGGCCT | 0.991 |
| GCATTAGGTA | 0.984 |
| ATAGTCTACG | 1.02 |
| TGGGGTTAAG | 0.977 |
| ATGTGTGGCT | 1.01 |
| GTTGGAGGGT | 0.977 |
| GGTTACTAAG | 1.01 |
| CGTGAATTGT | 1.04 |
| ATAATTAGTA | 0.946 |
| TTTGCCGGCG | 0.973 |
| GCTGGTTAGG | 1 |
| TCCTGTGGGT | 0.99 |
| AGGGTATTGT | 1.02 |
| GGGATTCGCA | 0.99 |
| TTGAGGGGTA | 1.01 |
| GCTGGGGTTT | 0.996 |
| TAAGCTGACG | 0.997 |
| ATCATGTGTA | 1.01 |
| AATGGTTTGT | 0.999 |
| GGTCCATACG | 1.01 |
| CGTCGACGGG | 1.02 |
| GTGCCATGTT | 0.982 |
| TGTTTGAGGC | 0.997 |
| TCTTTATGTG | 0.998 |
| CCGGGTAGTA | 1.12 |
| GGGCTGAGGG | 0.988 |
| AGAGGATATA | 0.988 |
| GGGATGACGG | 0.975 |
| AGGGGTTTAT | 0.988 |
| CTTGGTAATA | 1.06 |
| GGTTTCGGGC | 1.03 |
| CGGGTCGGCG | 1.01 |
| TCTCTGGTTA | 1.01 |
| ATCGCATTG | 1.24 |
| TTCAGTGTGG | 0.971 |
| TAGGGTGCGG | 1.03 |
| CGAGGAAAGG | 0.987 |
| TCGGGAAGGT | 1 |
| TTAGGGTCAT | 0.979 |
| TTAGGCCCCG | 1.01 |
| CAGGTGAGTT | 1.34 |
| CCAGTAGAGC | 1.01 |
| GGGTTGTGAT | 0.984 |
| ACTAGTATGC | 0.992 |
| TGTACTAGGA | 0.968 |
| CCTACATGTG | 1.26 |
| TTTTACAAAA | 0.981 |
| TCTGGTAGCG | 1.02 |
| TATTTGGGAC | 1.02 |
| ACGCACTAAG | 1.61 |
| TGTCTTTTTT | 1.01 |
| ATTTTTTTG | 0.955 |
| GGGGAAATTA | 1.02 |
| TCTATTGCTG | 0.995 |
| TTGCGAGGGC | 1 |
| TGGCAAAATG | 0.991 |
| TTTTTGGGGG | 0.997 |
| TTAATTTTCG | 1.04 |
| GGGGATACGT | 1 |
| GGGGGGTTAC | 1.42 |
| AGGAGGCTTC | 0.983 |
| GCGGGAACGG | 0.992 |
| GCTGGGGAAA | 0.996 |
| CGTTACTCCG | 1.5 |
| TTTAGTGGGC | 0.984 |
| CGAAGTCGGG | 0.955 |
| GTGGGGTGGG | 0.986 |
| TTTACTTTTC | 1.49 |
| TCGGGTGGTG | 0.92 |
| AATGTGAAAA | 0.976 |
| CGGACCGGGG | 0.996 |
| TACTGGGGGT | 1.04 |
| GGAAATGAAT | 1.02 |
| GCGATGTATA | 1.02 |
| TTTTGGCTGG | 1.01 |
| TGAAAATTCG | 1.08 |
| ATCAAGGTTC | 0.992 |
| TGGGTTATAG | 0.979 |
| AGGTCAGAGA | 1 |
| GTATTTTCGC | 1.02 |
| GCGTTGTTTG | 0.958 |
| GTTTCCGATT | 0.991 |
| TGGCACCATT | 1.06 |
| GAGGGGGTTT | 0.99 |

* * *

- Test system: ATP;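 note: ATP exposure 15 min at 22 °C before imaging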
- experiment-notes: switch fluorescence ratio, 500 uM ATP over buffer (Cy3 cluster intensity, sum of 5 cycles each) (fold (ratio)); higher = stronger signal-on switching upon ATP binding; sequences stand for … in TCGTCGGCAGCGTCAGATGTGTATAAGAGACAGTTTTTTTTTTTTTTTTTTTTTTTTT…TC
- test-settings: aptamer strand: ATP DNA aptamer (quencher-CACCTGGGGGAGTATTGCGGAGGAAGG + anchor), 100 nM annealed; ATP concentration: 500 uM
Parameter: switch fluorescence ratio. Scope: all listed entries.
reported-property: switch fluorescence ratio

| sequence-input | observed-measurement |
| --- | --- |
| AAAGAATGGT | 0.991 |
| CTCACGGGGC | 1.16 |
| TAGTCGCCGA | 0.986 |
| AAAAATGAGA | 0.998 |
| ACTGTTCAGC | 0.995 |
| TTTAGTGGGG | 0.97 |
| ATTCGACAGA | 1.02 |
| TTATAAATTT | 1.29 |
| TTCAGGAGGA | 1.03 |
| AGGAAGGTGT | 1.13 |
| TAGAACAAAA | 0.99 |
| TTGGGGACTC | 1 |
| TTAGAGGTTG | 1.13 |
| GATGACGAAT | 1.02 |
| GGACAAACGT | 1.2 |
| AGTTTCTGAG | 1.01 |
| GCGTGTCCGT | 1.01 |
| AGAAAGGAAG | 1.01 |
| TAGGCACCTG | 1.07 |
| TAGTTTTAT | 0.973 |
| AAGCATTTAC | 3.12 |
| TAAGGCGGTG | 1.04 |
| TGAAGTTTTG | 1.02 |
| CTCGGGTGGG | 0.985 |
| GTGGTAAGCG | 0.995 |
| GTGGTTGGGA | 0.992 |
| TGGGGGAGCA | 0.981 |
| TAGACGGGGA | 0.984 |
| CTGTAATTGG | 1.01 |
| GCGTAGAGCG | 0.988 |
| TCGGTTGTTG | 1.01 |
| CTCCCCGGGT | 3 |
| TGCCGCCGGG | 1.03 |
| ATTTTTGAAC | 0.99 |
| ATCAATATGT | 0.996 |
| GAAGTCGGAT | 0.979 |
| TTTACGGAAC | 1.24 |
| ATAGTCCAGC | 0.988 |
| TTTACAAATT | 1 |
| CGAGACAGGA | 1.01 |
| GGTTATAATC | 0.969 |
| GACTATAATT | 1.03 |
| TCAGGGGGAG | 1.02 |

* * *

- Test system: ATP;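 note: ATP exposure 15 min at 22 °C before imaging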
- experiment-notes: switch fluorescence ratio, 500 uM ATP over buffer (Cy3 cluster intensity, sum of 5 cycles each) (fold (ratio)); higher = stronger signal-on switching upon ATP binding; sequences stand for … in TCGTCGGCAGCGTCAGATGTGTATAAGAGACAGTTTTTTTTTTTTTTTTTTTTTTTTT…TC
- test-settings: aptamer strand: ATP DNA aptamer (quencher-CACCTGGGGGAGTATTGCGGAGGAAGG + anchor), 100 nM annealed; ATP concentration: 500 uM

| sequence-input | switch fluorescence ratio |
| --- | --- |
| CTCTGGATTT | 0.973 |
| GACGGTAAAA | 1.04 |
| GCGGGGGCAG | 0.993 |
| GTATGGCAGG | 1.01 |
| CTAAGGGGTG | 1.02 |
| ATGACTGATA | 1.03 |
| TATCGAAGGT | 0.986 |
| AGGGAGAAAA | 0.974 |
| AATCCCGGGG | 1.19 |
| AAAAATACGG | 0.965 |
